Reference source for all entries: ChEMBL document CHEMBL4393668

# system-tested: Nuclear receptor ROR-gamma (Homo sapiens)
# Sequence (P51449 whole entry, the tested form may be a part): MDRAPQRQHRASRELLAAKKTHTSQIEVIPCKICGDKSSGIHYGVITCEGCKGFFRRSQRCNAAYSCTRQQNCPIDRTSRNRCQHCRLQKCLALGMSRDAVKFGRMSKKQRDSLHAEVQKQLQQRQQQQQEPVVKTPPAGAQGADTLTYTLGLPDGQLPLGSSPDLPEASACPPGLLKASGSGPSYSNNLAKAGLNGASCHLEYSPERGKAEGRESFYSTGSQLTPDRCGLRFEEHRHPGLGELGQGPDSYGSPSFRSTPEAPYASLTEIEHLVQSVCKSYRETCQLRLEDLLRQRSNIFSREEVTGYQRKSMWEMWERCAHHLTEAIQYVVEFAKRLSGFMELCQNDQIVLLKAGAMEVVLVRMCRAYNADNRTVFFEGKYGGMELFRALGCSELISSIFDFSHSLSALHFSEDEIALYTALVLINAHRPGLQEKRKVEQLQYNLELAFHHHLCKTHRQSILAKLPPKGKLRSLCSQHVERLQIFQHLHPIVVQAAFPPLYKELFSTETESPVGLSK
# method-description: Inverse agonist activity at Gal4-fused RORgamma LBD (unknown origin) expressed in 293T cells measured after 24 hrs by dual-luciferase reporter gene assay
# Type: cell-based
Recorded IC50 by entry
test-readout: IC50 (nM)

molecule=O=[N+]([O-])c1ccc(CS(=O)(=O)Nc2ccc(-c3ccc(C(O)(C(F)(F)F)C(F)(F)F)cc3F)cc2)cc1 value_unit=nM meas_value=2220
molecule=COC(=O)CCC(=O)Nc1ccc(-c2ccc(C(O)(C(F)(F)F)C(F)(F)F)cc2F)cc1 value_unit=nM meas_value=460
molecule=CCCCCCC(=O)Nc1ccc(-c2ccc(C(O)(C(F)(F)F)C(F)(F)F)cc2F)cc1 value_unit=nM meas_value=820
molecule=COC(=O)CCCC(=O)Nc1ccc(-c2ccc(C(O)(C(F)(F)F)C(F)(F)F)cc2F)cc1 value_unit=nM meas_value=930
